TEST SUMMARY: SPR binding of NVA1309 to immobilized P4-derived peptides, RU400 as % of peptide P4
ASSAY SETUP: NVA1309 2 mM; P4 RU400=100%; P4 scanning (Example 6)
Readings of % BINDING (RU400) 2 mM for the listed sequences
OUTCOME MEASURE: % BINDING (RU400) 2 mM (%)

BIOSEQUENCE	RECORDED RESULT
IKAKLEETITQAGGGC (Peptide P4, carboxy-terminal VGGC_a2 region (II) + GGGC anchor) [carboxy-terminal VGGC_α2 region (II) + GGGC anchor, positive control]	100
LRVRIDDSLSNVGGGC (Peptide P9, P4 analogue - all aa substituted by most similar ones + GGGC anchor)	2
IAAALEETITQAGGGC (Peptide P10, P4 analogue - positively charged side chains A-substituted + GGGC anchor)	4
ETITQARYSETLKPGGGC (Peptide P6, carboxy-terminal VGGC_a2 region (IV) + GGGC anchor) [C-terminal P4 extension + GGGC anchor]	9
AQTITEELKAKIGGGC (Peptide P8, Inverse peptide P4 + GGGC anchor)	2
IKAKLEEAIAQAGGGC (Peptide P12, P4 analogue - polar side chains A-substituted + GGGC anchor)	17
IKAKLAATITQAGGGC (Peptide P11, P4 analogue - negatively charged side chains A-substituted + GGGC anchor)	25
